Tested on: HSkMC
testDescription: cytotoxicity call (relative viability < 0.9)
experimentalParameters: 10 µM
Out of some 39,000 compounds screened, about 1,500 (3.8%) were called active. Only a selection was taken, and actives are over-represented in it overall.
Respond only with the outcome that fits, drawn from 1.0 (active), 0.0 (inactive)

Query :: // param item: `C[C@@H]1CN([C@H](C)CO)C(=O)c2cccc(NC(=O)Nc3ccccc3)c2O[C@@H]1CN(C)Cc1ccc(-c2ccccc2)cc1` ; yields the recorded call
Result :: 0.0

Query :: Can you look up the reported call for `C[C@H]1CN([C@@H](C)CO)C(=O)c2cccc(NC(=O)Nc3ccccc3)c2O[C@H]1CN(C)Cc1ccc(C(=O)Nc2ccccc2N)cc1` for me?
Result :: 1.0

Query :: GET /call?item= `C[C@H](CO)N1C[C@H](C)[C@@H](CN(C)Cc2ccc(-c3ccccc3)cc2)Oc2c(NC(=O)Nc3ccccc3)cccc2C1=O` returns the recorded outcome of this test.
Result :: 0.0

Query :: Which result was noted for this compound in the test: `C[C@@H]1CN([C@@H](C)CO)C(=O)c2cccc(NC(=O)Nc3ccccc3)c2O[C@H]1CN(C)Cc1ccc(-c2ccccc2)cc1`
Result :: 1.0

* * *

System: HSkMC
testDescription: cytotoxicity call (relative viability < 0.9)
experimentalParameters: 10 µM
Out of some 39,000 compounds screened, about 1,500 (3.8%) were called active. What follows is part of a selection rich in actives, with near analogues and random picks from the rest.
Hello, when you answer, please use one of the following outcomes: active, inactive

Query :: // outcome(item) with item = `COCCN1CCC(N(Cc2ccc(-c3ccc(C(F)(F)F)cc3)cc2)C(=O)Cn2c(SCc3cccc(F)c3F)cc(=O)c3ccccc32)CC1`
Result :: active

Query :: Assay outcome for `CCC[C@@H](O)C#Cc1cnc2c(c1)C(=O)N([C@H](C)CO)C[C@H](C)[C@H](CN(C)S(C)(=O)=O)O2` : what was it?
Result :: inactive

Query :: Please let me know the test result on file for C#CC1(O)CCC2C3CCC4=CC(=O)CCC4C3CCC21C (configuration not stated) .
Result :: inactive

Query :: Query: recorded result category for `C[C@@H]1CN([C@@H](C)CO)C(=O)Cc2cc(NS(=O)(=O)c3cn(C)cn3)ccc2O[C@@H]1CN(C)C(=O)Nc1ccc(F)cc1` in this test
Result :: inactive

Query :: What classification did C#CC1(O)CCC2C3CCC4=CCCCC4C3C(=C)CC21CC (configuration not stated) end up with in this test?
Result :: inactive

Query :: Test call for this compound, please: `COc1ccc(S(=O)(=O)N(C)C[C@@H]2Oc3ccc(NC(=O)c4ccncc4)cc3C(=O)N([C@@H](C)CO)C[C@H]2C)cc1`
Result :: inactive

Query :: In this assay, the call recorded for `C[C@@H]1CN([C@H](C)CO)C(=O)c2cc(NC(=O)Nc3ccc(F)cc3)ccc2O[C@@H](C)CCCCO[C@@H]1CN(C)C(=O)NC1CCCCC1` was what?
Result :: inactive

Query :: Per the assay record, what outcome was assigned to `Cc1cc(Oc2ccnc3cc(Cl)ccc23)ccc1Cl` ?
Result :: inactive

Query :: Fill in: this test's call for `C[C@H]1CN([C@@H](C)CO)C(=O)Cc2cc(NC(=O)Cc3ccccc3)ccc2O[C@@H]1CN(C)C(=O)Nc1cccc2ccccc12` is ___
Result :: inactive

Query :: For this compound, state the assay outcome: CCC1(O)C(=O)OCc2c1cc1n(c2=O)Cc2cc3cc(O)ccc3nc2-1 (configuration not stated)
Result :: inactive

Query :: // param item: CC(=O)NC1C(O)CC(O)(C(=O)O)OC1C(O)C(O)CO (configuration not stated) ; yields the recorded call
Result :: inactive

Query :: Which result was noted for this compound in the test: `CC(C)[C@H]1CC[C@@H](C)C[C@@H]1NC(=O)c1cccc2ccccc12`
Result :: inactive

Query :: What is the recorded call for this compound in the test? `C[C@H](CO)N1C[C@H](C)[C@H](CN(C)C(=O)Nc2ccccc2)OCCCC[C@H](C)Oc2ccc(NS(=O)(=O)c3ccc(Cl)cc3)cc2C1=O`
Result :: inactive

Query :: Hi, sorry to bother you, what did the test record for `Cc1c(C(=O)Nc2ccc(Oc3ccnc4cc(OCC(C)(C)O)ccc34)c(F)c2)c(=O)n(-c2ccccc2)n1C` ?
Result :: active

Query :: Tell me the recorded outcome of this test for `COc1ccc2c(c1)n(CCN)c(=O)n2C(=O)[C@@H]1C[C@H](C)CC[C@H]1C(C)C` .
Result :: active

Query :: Please state the recorded outcome for this compound: `CC[C@@]1(O)C(=O)OCc2c1cc1n(c2=O)Cc2c-1nc1cc(F)c(C)c3c1c2[C@@H](N)CC3`
Result :: active

Query :: # outcome recorded in this test, key = `C[C@@H]1CCCCO[C@H](CN(C)S(=O)(=O)c2ccccc2)[C@@H](C)CN([C@@H](C)CO)C(=O)c2cc(NC(=O)C3CCCCC3)ccc2O1`
Result :: inactive

* * *

Test system: HSkMC
testDescription: cytotoxicity call (relative viability < 0.9)
experimentalParameters: 10 µM
Screen size: about 39,000 compounds; about 1,500 (3.8%) were called active. Many of the other results were omitted from the sample, so actives are more common in it than they were.
reportedProperty: cytotoxicity call

{"testSmiles": "NC(=O)N1CCc2n[nH]c(C(=O)N3CCOCC3)c2C1", "reportedProperty": "cytotoxicity call", "valueObserved": "inactive"}
{"testSmiles": "COc1cccc(NC(=O)N2C[C@@H](O)COC[C@H]3O[C@H](CC(=O)NCCCN4CCOCC4)CC[C@@H]32)c1", "reportedProperty": "cytotoxicity call", "valueObserved": "inactive"}
{"testSmiles": "Cc1noc(C)c1NC(=O)Nc1ccc2c(c1)C(=O)N([C@@H](C)CO)C[C@H](C)[C@H](CN(C)S(=O)(=O)c1ccc(F)cc1)OCCCC[C@@H](C)O2", "reportedProperty": "cytotoxicity call", "valueObserved": "inactive"}

* * *

Test system: HSkMC (human skeletal muscle cells)
testDescription: cytotoxicity call (relative viability < 0.9)
experimentalParameters: 10 µM
The whole screen tested about 39,000 compounds, of which about 1,500 (3.8%) were called active. This excerpt belongs to a sample that is enriched for actives.
Just give me one of these, please: active, inactive

Query :: Lab log entry: `CO[C@@H]1CN(C)C(=O)c2cc(NC(=O)NC3CCCCC3)ccc2OC[C@H](C)N(CCc2ccccc2)C[C@H]1C` — outcome as called in the assay?
Result :: inactive

Query :: Please share the test call associated with `C[C@@H]1CCCCO[C@@H](CN(C)Cc2ccncc2)[C@H](C)CN([C@@H](C)CO)C(=O)c2cc(NS(C)(=O)=O)ccc2O1` .
Result :: inactive

Query :: What did the test return for `C[C@@H]1CN([C@@H](C)CO)C(=O)c2cc(NC(=O)C3CCCCC3)ccc2O[C@@H]1CN(C)Cc1ccc(-c2ccccc2)cc1` ?
Result :: active

Query :: Lab log entry: `C[C@H]1CN([C@@H](C)CO)C(=O)c2cc(NC(=O)NC3CCCCC3)ccc2O[C@H]1CN(C)Cc1ccc(-c2ccccc2)cc1` — outcome as called in the assay?
Result :: inactive

Query :: Which outcome did this test record for the molecule `C[C@@H]1CCCCO[C@H](CN(C)S(=O)(=O)c2cn(C)cn2)[C@H](C)CN([C@@H](C)CO)C(=O)c2cc(NC(=O)Nc3ccc(C(F)(F)F)cc3)ccc2O1` ?
Result :: inactive

Query :: Field: outcome | Entry: `CSCC[C@H](NC(=O)[C@H](Cc1c[nH]c2ccccc12)NC(=O)CNC(=O)[C@@H](NC(=O)[C@H](Cc1ccc(OS(=O)(=O)O)cc1)NC(=O)[C@H](CC(=O)O)NC(=O)[C@H](CCC(N)=O)NC(=O)[C@@H]1CCC(=O)N1)[C@@H](C)O)C(=O)N[C@@H](CC(=O)O)C(=O)N[C@@H](Cc1ccccc1)C(N)=O`
Result :: inactive

Query :: GET /call?item= `COc1ccc(-c2cc(=O)c3c(O)cc(O[C@@H]4O[C@H](CO[C@H]5O[C@H](C)[C@@H](O)[C@H](O)[C@@H]5O)[C@@H](O)[C@H](O)[C@H]4O)cc3o2)cc1O` returns the recorded outcome of this test.
Result :: inactive

Query :: # lookup: test call for `CC(C)[C@@H](N)c1ncnn1C`
Result :: inactive

Query :: Tell me the recorded outcome of this test for CN1C2CCC1CC(OC(c1ccccc1)c1ccccc1)C2.CS(=O)(=O)O (stereo not drawn) .
Result :: inactive

Query :: Hello, I am checking results. What call was entered for `C[C@@H]1CN([C@H](C)CO)C(=O)c2cc(NC(=O)NC3CCCCC3)ccc2O[C@H]1CN(C)Cc1ccc(Oc2ccccc2)cc1` ?
Result :: inactive

Query :: Kindly provide the recorded test outcome for the following molecule: `CC(C)NC(=O)N(C)C[C@@H]1Oc2ccc(NS(=O)(=O)c3cn(C)cn3)cc2C(=O)N([C@@H](C)CO)C[C@@H]1C`
Result :: inactive

Query :: I would be grateful if you could indicate the recorded call for `COC(=O)[C@@H]1CCCC1=O` .
Result :: inactive

Query :: // outcome(item) with item = `C[C@@H]1CCCCO[C@H](CN(C)Cc2ccccc2)[C@@H](C)CN([C@H](C)CO)C(=O)c2cc(NS(=O)(=O)c3ccccc3)ccc2O1`
Result :: inactive

Query :: Kindly provide the recorded test outcome for the following molecule: `CCCNC(=O)C[C@@H]1CC[C@H]2[C@H](COc3ccc(NS(=O)(=O)c4ccccc4C)cc3C(=O)N2C)O1`
Result :: inactive

Query :: Lab log entry: `COc1ccc(S(=O)(=O)N(C)C[C@@H]2OCCCC[C@H](C)Oc3ccc(NC(=O)Nc4c(C)noc4C)cc3C(=O)N([C@H](C)CO)C[C@H]2C)cc1` — outcome as called in the assay?
Result :: inactive

Query :: How was `C[C@@H]1CN([C@@H](C)CO)C(=O)c2cc(NC(=O)NC3CCCCC3)ccc2O[C@@H]1CN(C)Cc1ccc(-c2ccccc2)cc1` classified in this test?
Result :: active

Query :: Record lookup: outcome of this test for `CSCC[C@H](NC(=O)[C@@H](N)Cc1c[nH]c2ccccc12)C(=O)N[C@@H](CC(=O)O)C(=O)N[C@@H](Cc1ccccc1)C(N)=O` ?
Result :: inactive

Query :: What did the test return for `C[C@@H]1CN([C@@H](C)CO)C(=O)c2cc(NC(=O)NC3CCCCC3)ccc2O[C@H]1CN(C)Cc1ccc(Oc2ccccc2)cc1` ?
Result :: active

Query :: Field: outcome | Entry: `C[C@@H]1CN([C@H](C)CO)C(=O)c2cc(NC(=O)C3CCCCC3)ccc2O[C@@H]1CN(C)Cc1ccc(-c2ccccc2)cc1`
Result :: inactive

Query :: Fill in: this test's call for `C[C@H]1CN([C@@H](C)CO)C(=O)c2cc(NS(=O)(=O)c3cn(C)cn3)ccc2O[C@H]1CN(C)C(=O)Nc1ccccc1` is ___
Result :: inactive

Query :: Which outcome was entered for the molecule `CC(=O)N1CCN(C(=O)Cc2ccc(S(C)(=O)=O)cc2)C[C@@H](O)C1` in this test?
Result :: inactive

Query :: Status in this test for `C[C@H]1CN([C@@H](C)CO)C(=O)CCCn2cc(nn2)CO[C@H]1CN(C)C(=O)C1CC1` ?
Result :: inactive

Query :: Can you look up the reported call for CNC1C(O)C(NC)C2OC3(O)C(=O)CC(C)OC3OC2C1O.Cl.Cl (stereo not drawn) for me?
Result :: inactive

Query :: In this assay, the call recorded for `C[C@@H]1CCCCO[C@@H](CN(C)C(=O)Nc2ccccc2)[C@@H](C)CN([C@H](C)CO)C(=O)c2cc(NC(=O)c3ccccc3)ccc2O1` was what?
Result :: inactive

Query :: Lab log entry: `C[C@H]1CN([C@@H](C)CO)C(=O)c2cc(NS(=O)(=O)c3cn(C)cn3)ccc2O[C@H]1CN(C)S(C)(=O)=O` — outcome as called in the assay?
Result :: inactive

Query :: Please state the recorded outcome for this molecule: `CO[C@H]1CN(C)C(=O)c2cc(NC(=O)NC3CCCCC3)ccc2OC[C@H](C)N(CCc2ccccc2)C[C@@H]1C`
Result :: inactive

Query :: Status in this test for `C[C@H](CO)N1C[C@H](C)[C@@H](CN(C)Cc2ccc(Oc3ccccc3)cc2)Oc2c(NC(=O)Cc3ccccc3)cccc2C1=O` ?
Result :: inactive

Query :: What outcome does the record of this test show for `C[C@H](CO)N1C[C@H](C)[C@H](CN(C)C(=O)Nc2cccc3ccccc23)Oc2c(NC(=O)NC3CCCCC3)cccc2C1=O` ?
Result :: inactive

Provenance of the data: the antibiotic and cytotoxicity screens of Wong et al. (2023)
